tested on: OVCAR-5 ovarian; experiment: NCI tumour cell line growth inhibition, 48 h
Below, each entry is listed alongside its reported TGI.

| Molecule | TGI |
| --- | --- |
| O=C1C2C(C(=O)N1c1ccccc1)C1(Br)c3ccccc3C2(Br)C2C(=O)N(c3ccccc3)C(=O)C21 (configuration not stated) | > 31.6 µM |
| O=C(CC1=Nc2nnc(CCCCCCCc3nnc4n3C(=O)C(CC(=O)c3ccccc3)=N4)n2C1=O)c1ccccc1 | > 100 µM |
| CCOC(=O)c1sc2nc(SC)nc3c2c1NCN3C1CC1 | > 100 µM |
| COc1ccc(/C=C2\C(=O)N(C(=O)c3ccc(NC(C)=O)cc3)N=C2C)cc1 | > 100 µM |
| COP(=O)(OC)/C(=C/c1c[nH]c2ccccc12)C(=O)O | > 100 µM |
| Clc1ccc(-c2cc(-c3cc(-c4ccc(Cl)cc4)n[nH]3)[nH]n2)cc1 | > 100 µM |
| C#C[C@]1(O)CC[C@H]2[C@@H]3CCC4=CC(=NCCOC(=O)c5cccc6cc7ccccc7nc56)CC[C@@H]4[C@H]3CC[C@@]21C | > 100 µM |
| CC(=O)NCCc1c(-c2[nH]c3ccccc3c2CCNC(C)=O)[nH]c2ccccc12 | > 100 µM |
| CCCS(=O)(=O)Nc1ccc(F)c(C(=O)c2c[nH]c3ncc(Cl)cc23)c1F | > 92.8 µM |
| O=C(O)CNC(=O)C(CS)Cc1ccccc1 (configuration not stated) | > 25 µM |
| CC1=NN(c2nc(N)nc(C(C#N)C(=O)c3cc4c(cc3Cl)Sc3nccn3S4(=O)=O)n2)C(C)(C)C1 (configuration not stated) | > 100 µM |
| CC1CC(C)CC(NC2=NCCO2)C1 (configuration not stated) | > 100 µM |
| O=C1c2ccccc2-c2nnc(-c3ccc(Br)cc3)cc21 | > 100 µM |
| CN1C(=O)CC2CCCN2C1=O (configuration not stated) | > 100 µM |
| Cc1cc2[nH]c(Cl)c(/C=C3\C(=O)Nc4ccccc43)c2cc1O | 20.1 µM |
| OC1(c2ccccc2)c2ccccc2NC2=NCCN21 (configuration not stated) | > 100 µM |
| CNC(=S)Nc1sc2c(c1C#N)CCCC2 | > 75 µM |
| CN(C)Cc1cc(N=Nc2ccccc2)ccc1O | > 100 µM |
| O=C1CN2C(Cl)(Cl)C2(c2ccccc2)c2cc(Cl)ccc2N1CC1CC1 (configuration not stated) | > 100 µM |
| COc1ccc(-c2cc(=O)c3c(OC)cccc3o2)c(OC)c1OC | > 100 µM |
| COc1ccc(C2[C@H]3C(=O)N(c4ccc(Cc5ccc(N6C(=O)[C@@H]7ON(c8ccccc8)C(c8ccc(OC)cc8)[C@@H]7C6=O)cc5)cc4)C(=O)[C@H]3ON2c2ccccc2)cc1 (some centres not stated) | > 100 µM |
| COc1ccc(C(N)=O)c(OC)c1OCc1ccccc1 | > 100 µM |
| COC(=O)c1cc(OC(C)=O)c2c(OC)ccc(OC)c2c1 | > 100 µM |
| CCOC(=O)Nn1c(C)nnc1CC#N | > 100 µM |
| [N-]=[N+]=Nc1ccccc1Oc1ccccc1 | > 100 µM |
| COc1cc(S(=O)(=O)Nc2nc(-c3ccc(N=Cc4cccs4)cc3)cs2)ccc1Cl | > 100 µM |
| Nc1ccc2c(c1)C(=O)N(OS(=O)(=O)c1ccccc1)C2=O | > 100 µM |
| CN1C2CCC1CC(CC(=O)NC(c1ccc(F)cc1)c1ccc(F)cc1)C2 (configuration not stated) | > 100 µM |
| CC12OC1(C)C1C(=O)OCC1C2=O (configuration not stated) | > 100 µM |
| CCOC(=O)[C@H]1O[C@@H]1C(=O)N[C@@H](CC(C)C)C(=O)NCCc1ccc(O)cc1 | > 100 µM |
| COc1ccccc1/C=C1\Sc2scc(-c3ccc(O)c(O)c3)[n+]2C1=O | 85.7 µM |
| Cc1cc(C)c(S(=O)(=O)N2CCN(S(=O)(=O)c3c(C)cc(C)cc3C)OCCCCCO2)c(C)c1 | > 100 µM |
| O=C1OCC=C1COC1OC(CO)C(O)C(O)C1O (configuration not stated) | > 100 µM |
| O=C(/C=C/c1ccc(Cl)cc1)/C=C/c1cc2ccccc2[nH]c1=O | 19.6 µM |
| COc1ccc(S(=O)(=O)N/N=C\c2cc([N+](=O)[O-])cc(I)c2O)c(OC)c1OC | > 100 µM |
| O=c1[nH]c(=O)n(C2CC(O)C(CO)O2)c2nc3cc4ccccc4cc3nc12 (configuration not stated) | > 100 µM |
| Cc1cc2ncn(C3CCCO3)c2cc1C (configuration not stated) | > 100 µM |
| COc1ccc2[nH]c(-c3ccccc3)c(/C=C(\C#N)S(=O)(=O)c3ccccc3)c2c1 | > 100 µM |
| O=C1NC2C(=O)N(Cc3ccccc3)C(=O)C2N1 (configuration not stated) | > 100 µM |
| COc1ccc(C2C(Cl)C(=O)N2NC(=O)c2ccc(N)cc2)cc1 (configuration not stated) | > 100 µM |
| Cc1ccc([N+](=O)[O-])cc1S(=O)(=O)Nc1ccc(C2=NN(C(=O)c3ccccc3)C(c3ccccc3)C2)cc1 (configuration not stated) | > 100 µM |
| CC1(C)OC2C(CO)OC(n3cnc(N)nc3=O)C2O1 (configuration not stated) | > 100 µM |

====

tested on: A549 NSCLC; assay: NCI tumour cell line growth inhibition, 48 h
Known TGI of a selection of compounds

| Compound | TGI |
| --- | --- |
| O=C1NC2C(=O)N(Cc3ccccc3)C(=O)C2N1 (centres undefined) | > 100 µM |
| CC(=O)O[C@H]1CCC2(C)C(=CCC3C2CCC2(C)/C(=N/OC(=O)c4ccc(N(CCCl)CCCl)cc4)CCC32)C1 (some centres undefined) | 8.37 µM |
| N#CC(/C(CCCC(=O)Nc1cccc([N+](=O)[O-])c1)=N/NC(=O)c1cc2ccccc2cc1O)c1ccccc1 (centres undefined) | > 100 µM |
| Cc1cc(S(=O)(=O)n2ccnc2Oc2cccc(Cl)c2)c(SSc2cc(Cl)c(C)cc2S(=O)(=O)n2ccnc2Oc2cccc(Cl)c2)cc1Cl | > 100 µM |
| CCC(C)CN1C(=O)NC(Cc2ccccc2)C1=O (centres undefined) | > 100 µM |
| Nc1ccc(C(c2ccccc2)(c2ccccc2)c2ccccc2)cc1 | > 100 µM |
| CC(C)=CCc1c(O)c(CC=C(C)C)c2oc(-c3ccc(O)cc3O)c(CC=C(C)C)c(=O)c2c1O | 24.2 µM |
| CC12OC1(C)C1C(=O)OCC1C2=O (centres undefined) | > 100 µM |
| CN1C2CCC1CN(CCOC(c1ccc(F)cc1)c1ccc(F)cc1)C2 | > 100 µM |

====

tested on: UO-31 renal; test: NCI tumour cell line growth inhibition, 48 h

| Molecule | TGI |
| --- | --- |
| COc1ccc(C(N)=O)c(OC)c1OCc1ccccc1 | > 100 µM |
| COc1cc(S(=O)(=O)Nc2nc(-c3ccc(N=Cc4cccs4)cc3)cs2)ccc1Cl | > 100 µM |
| Cn1c(O)c(C2=Nc3ccccc3C2=O)c2ccccc21 | > 100 µM |
| NCCN.NCCN.[Cl-].[O]=[Os+2]=[O] | > 100 µM |
| CCCCN1CCN(c2ccc3nc(-c4ccc5nc(-c6ccc(OC)c(OC)c6)[nH]c5c4)[nH]c3c2)CC1 | > 39.9 µM |
| O=C1c2ccccc2-c2nnc(-c3ccc(Br)cc3)cc21 | > 100 µM |
| CC(=O)O[C@H]1CC2C(C3CCC(C(C)CCC(=O)O)[C@]31C)[C@H](OC(C)=O)C[C@@H]1CC3(CC[C@]21C)OOC1(CC[C@]2(C)C4C[C@H](OC(C)=O)[C@]5(C)C(C(C)CCC(=O)O)CCC5C4[C@H](OC(C)=O)C[C@@H]2C1)OO3 (some centres undefined) | 3.32 µM |
| CN(C)CCC=C1c2ccccc2C=Cc2ccccc21 | 32 µM |
| Cc1ccc2nc(-c3ccc(N)c(Br)c3)sc2c1 | 35.4 µM |

// data source = PubChem BioAssay (NCI)
